System: SF-268
test.summary: NCI tumour cell line growth inhibition, 48 h
The source made the active and inactive calls. Cut-off read from the data, not from the text of the source: active = GI50 up to about 1.1 µM and inactive = higher.
Answer with one of the outcomes active, inactive

Examples with answers:
For CC12CCC(=O)[C@@]1(C)CCCC2=O (some centres not stated) , what call appears in the results of this test?
inactive

Record lookup: outcome of this test for COC(=O)[C@@H]1[C@H](O)[C@H](C)[C@H](O)[C@@](C)(O)/C=C\C=C(\C)C(=O)Nc2c(C)c(OC(C)=O)c3c(c2O)C(=O)C(C)=C2OCOC(=C23)/C(C)=C/[C@@](C)(O)[C@H](O)[C@@H](C)[C@H]1OC(C)=O ?
inactive

Tell me the recorded outcome of this test for CO/N=C(/C)c1cccc(Nc2nc3ccccc3c3[nH]c4ccccc4c23)c1 .
inactive

Further cases:
Tell me the recorded outcome of this test for C=C1CC[C@@H]2C(C)(C)C(O)CCC2(C)C1COc1ccc2ccc(=O)oc2c1 (some centres not stated) .
inactive

GET /call?item= CC(C)(C)CC(C)(C)c1cc2c(O)c(c1)Cc1cc(C(C)(C)CC(C)(C)C)cc(c1O)Cc1cc(C(C)(C)CC(C)(C)C)cc(c1O)Cc1cc(C(C)(C)CC(C)(C)C)cc(c1O)C2 returns the recorded outcome of this test.
inactive

Record lookup: outcome of this test for COc1cccc(C[C@H]2COC(=O)[C@]2(O)Cc2cccc(OC)c2)c1 ?
active

In this assay, the call recorded for COc1ccc2c(c1OC)C(C=C(c1ccccc1)c1ccccc1)CN(C)C2 (configuration not stated) was what?
inactive

// outcome(item) with item = O=[N+]([O-])c1cc2c(cc1/C=N/n1c(CO)nc3ccccc31)OCO2
inactive

State the result this test recorded for Cc1c(-c2ccccn2)ccc2ccccc12 .
inactive

Returns: the outcome recorded for C1CCN(c2nc(=[N+]3CCCCC3)ss2)CC1 in this assay.
inactive

Outcome? Cc1ncc([N+](=O)[O-])n1CCn1ccnc1[N+](=O)[O-]
inactive

// outcome(item) with item = COc1cc(C2CC(C)(O)Oc3cc4c(cc32)OCO4)cc(OC)c1OC (configuration not stated)
active

----------
Tested on: NCI-H23
test.summary: NCI tumour cell line growth inhibition, 48 h
Calls of active or inactive are those of the source. Cut-off read from the data, not from the text of the source: active = GI50 up to about 1.1 µM and inactive = higher.
Below is a list of entries, each paired with its recorded GI50 value.

Briefly, GI50 measured for CCOC(=O)c1nc2ccc(C(F)(F)F)cc2nc1Nc1ccc(OC)c(OC)c1 : > 100 µM (inactive)

Record C[C@H](CCC1=NCCN1)[C@H]1CC[C@H]2[C@@H]3CC[C@@H]4C[C@H](O)CC[C@]4(C)[C@H]3C[C@H](O)[C@]12C . Reported GI50: 14.1 µM (inactive)

Recorded result, O=C(Cc1nc2ccccc2s1)C(=O)Nc1ccccc1C(F)(F)F , GI50: > 100 µM (inactive)

Entry CC(=O)O[C@H]1C(=O)[C@@]2(C)[C@H]([C@H](OC(=O)c3ccccc3)[C@]3(O)C[C@H](OC(=O)[C@H](O)[C@@H](NC(=O)c4ccc(N(C)C)cc4)c4ccccc4)C(C)=C1C3(C)C)[C@]1(OC(C)=O)CO[C@@H]1C[C@@H]2O , GI50 reported as 0.00849 µM (active)

Measured GI50, CN(C)CCNc1nc(-c2cccs2)cc(-c2cccs2)n1 : 10.5 µM (inactive)

# GI50 of Cn1c(=O)c(C(c2ccccc2)c2c(O)c3ccccc3n(C)c2=O)c(O)c2ccccc21 = > 100 µM (inactive)

// recorded GI50 for CC(=O)OC1CC2CC(=O)CC1N2C (stereo not drawn) : > 100 µM (inactive)

Further cases:
The reported GI50 of the compound COc1ccccc1/C=C/c1ccnc2ccccc12 was 13.6 µM (inactive)
